tested on: recombinant human CFTR carrying the premature stop codon (PTC) mutation G542X; assay: CFTR-PTC mutant translation readthrough, Nanoluc tagged CFTR luminescence (G542X cell line); type: cell-based; conditions: fold over 10 μM G-418; in combination with G418; G542X cell line
parameterMeasured: CFTR G542X ACTIVITY Fold 10 μM G-418

Would you please look over these solved cases?
O=C1O[C@H](CO)CN1c1ncc(OCc2c(Cl)cccc2C(F)(F)F)cn1	C′ (C′ = <5X)
CN(C)CC1CN(c2ncc(OCc3c(Cl)cccc3Cl)cn2)CCO1 (stereo not drawn)	A′ (A′ = ≥10X)
OC[C@H]1CN(c2ncc(OCc3c(Cl)cccc3C(F)(F)F)cn2)CCO1	A′ (A′ = ≥10X)
CC(=O)N[C@H]1CCN(c2ncc(OCc3c(Cl)cccc3Cl)cn2)C1	A′ (A′ = ≥10X)
O=C1OC(CO)CN1c1ccc(OCc2c(Cl)cccc2Cl)c(F)c1 (stereo not drawn)	B′ (B′ = ≥5X to <10X)
OCC1CN(c2ncc(OCc3c(Cl)cccc3C(F)(F)F)cn2)CCO1 (stereo not drawn)	A′ (A′ = ≥10X)

Using known records, supply CFTR G542X ACTIVITY Fold 10 μM G-418 for O=C1CN(c2ncc(OCc3c(Cl)cccc3Cl)cn2)C(=O)N1
C′ (C′ = <5X)

State its CFTR G542X ACTIVITY Fold 10 μM G-418: OCCn1cc(-c2ccc(OCc3c(Cl)cccc3Cl)cc2)nn1
B′ (B′ = ≥5X to <10X)

Identify CFTR G542X ACTIVITY Fold 10 μM G-418 associated with the compound CCc1cccc(C(F)(F)F)c1COc1ccc(N2C[C@@H](CO)NC2=O)nc1
C′ (C′ = <5X)

Give recorded CFTR G542X ACTIVITY Fold 10 μM G-418. CC1(O)CCN(c2ncc(OCc3c(Cl)cccc3C(F)(F)F)cn2)CC1
A′ (A′ = ≥10X)

Please indicate CFTR G542X ACTIVITY Fold 10 μM G-418 recorded for Cc1cccc(OC(F)F)c1COc1ccc(-n2cnc(CO)n2)cc1
B′ (B′ = ≥5X to <10X)

Identify measured CFTR G542X ACTIVITY Fold 10 μM G-418 associated with O=C1N[C@H](CO)CN1c1ccc(OCc2c(Cl)cccc2Cl)cn1
A′ (A′ = ≥10X)

Indicate its recorded CFTR G542X ACTIVITY Fold 10 μM G-418; the compound in question is COc1cccc(Cl)c1COc1ccc(N2CC(CO)OC2=O)cc1 (stereo not drawn)
C′ (C′ = <5X)

Note CFTR G542X ACTIVITY Fold 10 μM G-418 for the compound shown: Cc1cccc(C(F)(F)F)c1COc1ccc(-n2cnc(C(=O)O)n2)cc1
A′ (A′ = ≥10X)

Query CFTR G542X ACTIVITY Fold 10 μM G-418 for O=C1CN(Cc2ccccc2)C(=O)N1c1ncc(OCc2ccccc2)cn1
A′ (A′ = ≥10X)

Name the recorded CFTR G542X ACTIVITY Fold 10 μM G-418 of the compound listed here: COC(=O)C1CN(c2ncc(OCc3c(Cl)cccc3Cl)cn2)CC(=O)N1 (stereo not drawn)
A′ (A′ = ≥10X)

State its CFTR G542X ACTIVITY Fold 10 μM G-418 for this compound: Cc1cccc(C(F)(F)F)c1COc1ccc(N2C(=O)NC3(CCCC3)C2=O)cc1
A′ (A′ = ≥10X)

Item Cc1cccc(C(F)(F)F)c1COc1cnc(-n2cnnc2)nc1 : provide CFTR G542X ACTIVITY Fold 10 μM G-418
A′ (A′ = ≥10X)

Tell me CFTR G542X ACTIVITY Fold 10 μM G-418 reported for CC1CN(c2ncc(OCc3c(Cl)cccc3Cl)cn2)CCC1O (stereo not drawn)
A′ (A′ = ≥10X)

In one line, give reported CFTR G542X ACTIVITY Fold 10 μM G-418 of the entry [2H]C([2H])(O)c1ncn(-c2ccc(OC([2H])([2H])c3c(Cl)cccc3C(F)(F)F)cc2)n1 .
C′ (C′ = <5X)

Give CFTR G542X ACTIVITY Fold 10 μM G-418 for Cc1cccc(C(F)(F)F)c1COc1cnc(N2CCC(O)(CCO)CC2)nc1
A′ (A′ = ≥10X)

Please list CFTR G542X ACTIVITY Fold 10 μM G-418 recorded for the compound CS(=O)(=O)NCC1CN(c2ncc(OCc3c(Cl)cccc3Cl)cn2)CCO1 (stereo not drawn)
A′ (A′ = ≥10X)

Look up and state reported CFTR G542X ACTIVITY Fold 10 μM G-418 for Cc1cccc(C(F)(F)F)c1COc1ccc(N2C[C@@H](CO)NC2=O)nc1
A′ (A′ = ≥10X)

Report CFTR G542X ACTIVITY Fold 10 μM G-418 for OCc1cn(-c2ccc(OCc3c(Cl)cccc3Cl)cn2)cn1
B′ (B′ = ≥5X to <10X)

Input CN(C(N)=O)c1ncc(OCc2c(Cl)cccc2Cl)cn1 , output reported CFTR G542X ACTIVITY Fold 10 μM G-418.
A′ (A′ = ≥10X)

Using known records, supply CFTR G542X ACTIVITY Fold 10 μM G-418 for O=C1CCN(c2ncc(OCc3c(Cl)cccc3C(F)(F)F)cn2)C(=O)N1
C′ (C′ = <5X)
